- ASSAY_SYSTEM: human acetyl-CoA carboxylase 2 (ACC2) (Homo sapiens)
- Construct: The cDNA encoding amino acids 144 to 2458 of human acetyl-CoA carboxylase 2; made in house; host or cells: Sf9 insect cells (baculovirus, pFastBac1)
- ASSAY_COMMENT: Acetyl-CoA carboxylase enzyme assay (malonyl-CoA formation by LC/MS/MS)
- Assay type: biochemical
- TEST_CONDITIONS: recombinant human ACC2 (aa 144-2458); read-out: IC50 ACC2
Decide using IC50 alone. Strictly below 0.02 µM: True. Equal to or above 0.02 µM: False.

Known results for compounds:
### Prompt IC50 under 0.02 µM? Item: `CC(C)(C)OC(=O)N1CCN(C(=O)[C@H]2CC[C@H](NS(=O)(=O)c3ccc4c(c3)Cc3ccccc3-4)CC2)[C@@H](c2ccccc2)C1`
### Response True

### Prompt Threshold test, IC50 < 0.02 µM: `C[C@@H](NC(=O)[C@H]1CC[C@H](NS(=O)(=O)c2ccc3[nH]c(-c4ccccc4)nc3c2)CC1)c1ccccc1`
### Response True

### Prompt # strict comparison: is reported IC50 < 0.02 µM? input = CC(C)(C)OC(=O)N1CCN(C(=O)[C@H]2CC[C@H](NS(=O)(=O)c3ccc4c(c3)CCC(C(F)(F)F)N4)CC2)C(c2ccccc2)C1 (stereo partly drawn)
### Response False

### Prompt Given the entry `CCOc1ccc2cc(S(=O)(=O)N[C@H]3CC[C@H](C(=O)N4CCNC[C@@H]4C(=O)OC)CC3)ccc2n1` , would its reported IC50 be below 0.02 µM?
### Response False

Alright, here's another compound for you.
### Prompt Strictly below 0.02 µM: is that where IC50 of `O=C([C@H]1CC[C@H](NS(=O)(=O)c2ccc3c(Cl)c(-c4ccccc4)[nH]c3c2)CC1)N1CCCCC1` sits?
### Response False

====

- ASSAY_SYSTEM: human acetyl-CoA carboxylase 2 (ACC2) (Homo sapiens, UniProt O00763)
- Construct: The cDNA encoding amino acids 144 to 2458 of human acetyl-CoA carboxylase 2; made in house; host or cells: Sf9 insect cells (baculovirus, pFastBac1)
- Sequence (O00763 144-2458): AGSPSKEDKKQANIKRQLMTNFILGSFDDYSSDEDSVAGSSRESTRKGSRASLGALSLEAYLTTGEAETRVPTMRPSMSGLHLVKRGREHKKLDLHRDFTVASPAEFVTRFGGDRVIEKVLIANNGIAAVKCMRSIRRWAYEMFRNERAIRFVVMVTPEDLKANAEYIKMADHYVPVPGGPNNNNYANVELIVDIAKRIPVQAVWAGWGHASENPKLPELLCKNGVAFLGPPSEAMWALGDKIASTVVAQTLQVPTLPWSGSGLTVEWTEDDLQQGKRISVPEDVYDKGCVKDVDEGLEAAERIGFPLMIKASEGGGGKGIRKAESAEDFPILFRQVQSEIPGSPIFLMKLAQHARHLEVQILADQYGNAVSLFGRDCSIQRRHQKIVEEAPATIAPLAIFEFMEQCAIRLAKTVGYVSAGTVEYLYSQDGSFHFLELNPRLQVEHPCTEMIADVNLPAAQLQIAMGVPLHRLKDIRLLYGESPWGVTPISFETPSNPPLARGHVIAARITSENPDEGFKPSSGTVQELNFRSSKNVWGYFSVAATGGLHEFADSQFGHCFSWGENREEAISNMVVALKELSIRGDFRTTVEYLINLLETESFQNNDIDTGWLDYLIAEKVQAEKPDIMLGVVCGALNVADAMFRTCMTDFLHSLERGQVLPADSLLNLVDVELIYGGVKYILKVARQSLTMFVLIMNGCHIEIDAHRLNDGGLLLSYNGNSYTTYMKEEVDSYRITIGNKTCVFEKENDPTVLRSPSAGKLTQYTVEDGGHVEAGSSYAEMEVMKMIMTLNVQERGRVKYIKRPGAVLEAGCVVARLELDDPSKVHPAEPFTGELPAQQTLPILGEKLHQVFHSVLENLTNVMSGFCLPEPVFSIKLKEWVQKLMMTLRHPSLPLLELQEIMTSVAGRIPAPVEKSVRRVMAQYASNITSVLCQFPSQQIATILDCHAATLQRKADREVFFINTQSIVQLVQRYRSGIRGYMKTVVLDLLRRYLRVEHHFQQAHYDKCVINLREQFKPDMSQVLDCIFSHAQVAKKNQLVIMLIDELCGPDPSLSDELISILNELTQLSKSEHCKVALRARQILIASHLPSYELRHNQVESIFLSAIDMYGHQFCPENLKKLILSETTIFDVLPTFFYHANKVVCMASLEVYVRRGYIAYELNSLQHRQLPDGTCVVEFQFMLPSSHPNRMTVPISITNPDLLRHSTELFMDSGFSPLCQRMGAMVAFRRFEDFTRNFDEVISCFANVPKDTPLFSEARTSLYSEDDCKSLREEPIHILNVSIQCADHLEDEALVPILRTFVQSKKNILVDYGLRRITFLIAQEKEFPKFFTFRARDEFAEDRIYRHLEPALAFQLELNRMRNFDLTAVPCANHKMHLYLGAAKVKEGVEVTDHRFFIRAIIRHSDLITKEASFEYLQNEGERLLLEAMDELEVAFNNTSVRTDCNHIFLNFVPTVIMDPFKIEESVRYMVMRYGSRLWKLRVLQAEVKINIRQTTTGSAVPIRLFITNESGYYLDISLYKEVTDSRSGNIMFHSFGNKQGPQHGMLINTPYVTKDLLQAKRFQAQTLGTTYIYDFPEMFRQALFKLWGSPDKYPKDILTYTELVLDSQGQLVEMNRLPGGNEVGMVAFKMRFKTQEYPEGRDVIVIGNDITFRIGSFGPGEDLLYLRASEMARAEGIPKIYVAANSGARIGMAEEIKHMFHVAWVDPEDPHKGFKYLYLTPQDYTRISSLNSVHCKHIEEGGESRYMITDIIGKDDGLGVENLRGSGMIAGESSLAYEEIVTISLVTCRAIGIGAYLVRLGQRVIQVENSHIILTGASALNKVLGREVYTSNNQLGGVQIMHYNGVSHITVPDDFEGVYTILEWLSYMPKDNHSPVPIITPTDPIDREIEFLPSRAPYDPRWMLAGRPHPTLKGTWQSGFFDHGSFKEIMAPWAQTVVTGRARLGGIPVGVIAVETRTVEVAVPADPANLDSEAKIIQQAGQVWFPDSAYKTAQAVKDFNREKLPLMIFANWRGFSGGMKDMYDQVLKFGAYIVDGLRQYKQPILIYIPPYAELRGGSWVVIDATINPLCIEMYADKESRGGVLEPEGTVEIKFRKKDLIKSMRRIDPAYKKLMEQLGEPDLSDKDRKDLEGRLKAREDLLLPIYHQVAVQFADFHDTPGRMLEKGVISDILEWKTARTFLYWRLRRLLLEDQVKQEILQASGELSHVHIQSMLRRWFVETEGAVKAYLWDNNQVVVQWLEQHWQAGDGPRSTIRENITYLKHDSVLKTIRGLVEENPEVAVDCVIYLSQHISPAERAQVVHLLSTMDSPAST
- ASSAY_COMMENT: Acetyl-CoA carboxylase enzyme assay (malonyl-CoA formation by LC/MS/MS)
- Format: biochemical
- TEST_CONDITIONS: recombinant human ACC2 (aa 144-2458); read-out: IC50 ACC2
READOUT_KIND: IC50 (nM)
Quick note: give the figure in nM, leave out the unit.

### Prompt Assign IC50 to the following record: C[C@@H](NC(=O)[C@H]1CC[C@H](NS(=O)(=O)c2ccc3c(c2)c(C#N)cn3C)CC1)c1ccc(F)cc1 [Example 88]
### Response 50

### Prompt Specify reported IC50 for the compound shown: C[C@@H](NC(=O)[C@H]1CC[C@H](NS(=O)(=O)c2ccc3c(c2)cc(-c2ccccc2)n3C)CC1)c1ccc(F)cc1 [Example 14]
### Response 10

### Prompt Supply IC50 value. Item: C[C@@H](NC(=O)[C@H]1CC[C@H](NS(=O)(=O)c2ccc3nc(OC4COC4)ccc3c2)CC1)c1ccc(F)cc1 [Example 64]
### Response 42

***
### Prompt Output measured IC50 for this item: CC(C)c1nnc([C@H]2CC[C@H](NS(=O)(=O)c3ccc4[nH]c(-c5ccccc5)nc4c3)CC2)o1 [Example 586]
### Response 1300

### Prompt Tell me IC50 reported for Cc1ccc2cc(S(=O)(=O)N[C@H]3CC[C@H](C(=O)N[C@H](C)c4ccc(F)cc4)CC3)ccc2n1 [Example 72]
### Response 115

### Prompt Fill in IC50 for record CC(C)(C)c1nnc([C@H]2CC[C@H](NS(=O)(=O)c3ccc4[nH]c(C5CC5)nc4c3)CC2)o1 [Example 651]
### Response 6350

### Prompt Give me measured IC50, please, for this compound: O=C([C@H]1CC[C@H](NS(=O)(=O)c2ccc3c(c2)CCC(C(F)(F)F)N3)CC1)N1CCNCC1c1ccccc1 (stereo partly shown) [Example 182]
### Response 685

// data source = patent US8697739B2
